- assayTarget: SARS CoV-2 M^pro (Severe acute respiratory syndrome coronavirus 2, UniProt P0DTD1)
- Construct: The main protease (M^pro) is a part of the polyprotein chain, also named 3C-like protease; SUMO (cleaved yes); His; made in house; host or cells: Escherichia coli BL21(DE3)
- assayProtocol: nanoDSF thermal shift assay (TSA)
- Assay type: binding
- experimentalConditions: compound 200 μM
Counter-ions that a name gives are not always drawn.
Each entry below carries its recorded Tm of M^pro.
The figure you give is taken to be in °C; do not add the unit.

The cases that follow already have their Tm of M^pro on record.
molecule: COc1cc(O)c2c(c1)oc(=O)c1c3cc(O)c(O)cc3oc21
Tm of M^pro (°C): 56.1
//
molecule: Cc1c(=O)c(=O)c2c3c[nH]c4c(C)c(=O)c(=O)c(c5c[nH]c1c52)c43
Tm of M^pro (°C): 54.4
//
molecule: O=c1cc(-c2ccccc2)oc2cc(O)c(O)c(O)c12 [baicalein, Baicalein, reference compound]
Tm of M^pro (°C): 57.0
//
molecule: CC(C)CCCC(C)C1CCC2C3CC=C4CC(OS(=O)(=O)O)CCC4(C)C3CCC12C (centres unmarked) [cholesteryl sodium sulfate, Cholesteryl sodium sulfate]
Tm of M^pro (°C): 48.9

Now, please, on to the next molecule.
Sample CC(C)=CC[C@H](OC(=O)C=C(C)C)C1=CC(=O)c2c(O)ccc(O)c2C1=O ; Tm of M^pro observed: 58.3
